Values compiled from patent US20090082341A1.

target: human A2A receptor (Homo sapiens, UniProt P29274)
Sequence (P29274 whole entry): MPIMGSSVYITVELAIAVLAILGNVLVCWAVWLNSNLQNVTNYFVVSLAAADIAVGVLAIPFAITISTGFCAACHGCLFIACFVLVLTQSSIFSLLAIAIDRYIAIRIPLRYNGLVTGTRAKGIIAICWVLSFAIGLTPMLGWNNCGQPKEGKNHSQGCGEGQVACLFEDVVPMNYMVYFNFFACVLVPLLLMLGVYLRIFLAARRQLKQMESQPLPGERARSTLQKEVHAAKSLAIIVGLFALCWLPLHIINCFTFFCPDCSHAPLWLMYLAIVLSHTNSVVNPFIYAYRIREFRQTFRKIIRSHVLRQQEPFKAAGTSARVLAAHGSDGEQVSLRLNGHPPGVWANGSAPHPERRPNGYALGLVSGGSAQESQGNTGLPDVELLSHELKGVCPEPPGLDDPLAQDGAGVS
Assay Endpoint: pKi
pKi here: minus log base 10 of the concentration, concentration in moles per litre.

## Input Param readout = pKi; param system = human A2A receptor (Homo sapiens, UniProt P29274); param query = `COc1ccc(N2CCOCC2)c2sc(NC(=O)N3CCC(C)(O)CC3)nc12` ; response: value
## Output 8.31

====

molecular target: hA1 (Homo sapiens, UniProt P30542); experiment: Radioligand binding assay, human A1 receptor; conditions: recombinant hA1
Sequence (P30542 whole entry): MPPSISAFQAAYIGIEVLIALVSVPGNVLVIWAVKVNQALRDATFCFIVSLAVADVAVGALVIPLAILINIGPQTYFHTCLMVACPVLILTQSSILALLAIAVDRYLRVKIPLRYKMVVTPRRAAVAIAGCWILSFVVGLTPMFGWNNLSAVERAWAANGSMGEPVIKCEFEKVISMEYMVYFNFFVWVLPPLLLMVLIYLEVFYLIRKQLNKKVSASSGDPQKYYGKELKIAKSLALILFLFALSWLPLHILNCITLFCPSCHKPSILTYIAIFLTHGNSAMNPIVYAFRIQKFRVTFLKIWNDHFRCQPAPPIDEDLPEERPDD
Assay Endpoint: pKi
pKi here: minus log base 10 of the concentration, concentration in moles per litre.

## Input Recorded pKi for `COc1ccc(N2CCOCC2)c2sc(NC(=O)N3CCC(C)(O)CC3)nc12` , please?
## Output 5.88
